Values from paper PMC10390775

# assay-method-text: Pharmacokinetics of evacetrapib in plasma, liver and brain after a single tail vein injection (UHPLC-MS-qTOF)
# Type: in vivo, hCETPtg mice (C57BL/6J background)
# recorded-conditions: male, hCETPtg (C57BL/6J background), mouse, iv; plasma, 120 mg/kg BW i.v.; read-out: CL (drug clearance) (converted)
metric-name: clearance

Problem: clearance lookup needed for `Cc1cc(C)c2c(c1)[C@@H](N(Cc1cc(C(F)(F)F)cc(C(F)(F)F)c1)c1nnn(C)n1)CCCN2C[C@H]1CC[C@H](C(=O)O)CC1` , thanks.
Result: 0.055 mL/min

###

# assay-method-text: Pharmacokinetics of evacetrapib in plasma, liver and brain after a single tail vein injection (UHPLC-MS-qTOF)
# Assay type: in vivo, hCETPtg mice (C57BL/6J background)
# recorded-conditions: male, hCETPtg (C57BL/6J background), mouse, plasma, iv, 40 mg/kg, plasma, 40 mg/kg BW i.v.; read-out: t1/2β (half-life) (converted)
metric-name: half-life
Field note: include the unit after the figure.

Problem: half-life lookup needed for Cc1cc(C)c2c(c1)[C@@H](N(Cc1cc(C(F)(F)F)cc(C(F)(F)F)c1)c1nnn(C)n1)CCCN2C[C@H]1CC[C@H](C(=O)O)CC1 [evacetrapib] , thanks.
Result: 2.3 h
